These data points were gathered from patent US12234232B2.

The entries below come with measured IC50 values attached.
- experimental target: JAK1 (Homo sapiens)
- assay: Cellular JAK1 activity assay: IL-6-stimulated STAT3 phosphorylation in TF-1 cells
- Assay type: cell-based
- Set-up: endogenous in cells; host or cells: TF-1 cells (ATCC)
- recorded conditions: IL-6 (30 ng/mL), pSTAT3, read-out: IC50 Cell JAK1

* CC[C@H](C(=O)Nc1nccc2c(-c3nc(Nc4cccc(S(C)(=O)=O)c4F)ncc3C)c[nH]c12)N1CC2CCC(C1)N2C | 100 to 1000 nM
* CC[C@@H](C(=O)Nc1nccc2c(-c3nc(Nc4cn(C)nc4OC)ncc3C)c[nH]c12)N1CCN(C)CC1 | < 100 nM
* Cc1cnc(Nc2cccc(S(C)(=O)=O)c2F)nc1-c1c[nH]c2c(NC(=O)NC(C)C)nccc12 | < 100 nM

Let us examine a further case.
Enter reported IC50 observed with JAK1 (Homo sapiens) for CCC(C(=O)Nc1nccc2c(-c3nc(Nc4cccc(NS(C)(=O)=O)c4F)ncc3C)c[nH]c12)N1CCN(C)CC1 (stereo not shown) 100 to 1000 nM

---

- experimental target: JAK1 (Homo sapiens, UniProt P23458)
- Sequence (P23458 whole entry): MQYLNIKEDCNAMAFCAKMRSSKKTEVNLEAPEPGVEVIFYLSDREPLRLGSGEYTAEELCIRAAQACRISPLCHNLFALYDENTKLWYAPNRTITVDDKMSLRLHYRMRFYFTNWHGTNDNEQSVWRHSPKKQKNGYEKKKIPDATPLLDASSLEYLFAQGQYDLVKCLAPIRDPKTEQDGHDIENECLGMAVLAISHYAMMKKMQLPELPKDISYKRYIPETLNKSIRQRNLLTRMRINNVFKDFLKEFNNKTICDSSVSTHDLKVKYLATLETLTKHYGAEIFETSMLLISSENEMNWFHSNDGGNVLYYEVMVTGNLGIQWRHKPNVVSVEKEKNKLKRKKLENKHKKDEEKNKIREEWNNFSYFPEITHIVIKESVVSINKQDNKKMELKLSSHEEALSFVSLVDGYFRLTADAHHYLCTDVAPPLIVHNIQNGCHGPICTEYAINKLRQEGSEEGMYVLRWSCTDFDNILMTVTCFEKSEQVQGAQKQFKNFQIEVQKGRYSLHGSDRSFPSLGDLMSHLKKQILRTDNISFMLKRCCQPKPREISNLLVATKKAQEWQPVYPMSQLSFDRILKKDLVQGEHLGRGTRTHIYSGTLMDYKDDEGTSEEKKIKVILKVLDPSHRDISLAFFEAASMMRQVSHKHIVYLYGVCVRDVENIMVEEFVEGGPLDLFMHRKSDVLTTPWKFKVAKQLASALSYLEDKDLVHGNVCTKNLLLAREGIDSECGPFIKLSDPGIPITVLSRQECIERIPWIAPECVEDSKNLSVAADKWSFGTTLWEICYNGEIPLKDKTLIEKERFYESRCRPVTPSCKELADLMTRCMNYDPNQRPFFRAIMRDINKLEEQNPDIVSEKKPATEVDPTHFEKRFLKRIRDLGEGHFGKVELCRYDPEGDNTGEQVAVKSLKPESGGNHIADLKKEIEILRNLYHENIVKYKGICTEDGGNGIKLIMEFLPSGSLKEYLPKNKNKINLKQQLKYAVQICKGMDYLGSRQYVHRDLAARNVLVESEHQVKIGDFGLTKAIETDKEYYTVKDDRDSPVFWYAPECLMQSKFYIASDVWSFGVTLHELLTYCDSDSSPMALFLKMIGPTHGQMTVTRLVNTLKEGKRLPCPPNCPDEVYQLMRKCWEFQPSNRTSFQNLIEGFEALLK
- assay: In vitro JAK1 kinase activity assay (HTRF kinEASE TK)
- Format: biochemical
- Parameters: purchased Thermo Fisher
- recorded conditions: 1.1 μM ATP, 60 minutes, room temperature; read-out: IC50 JAK1 (enzyme activity assay)
The entries below come with measured IC50 values attached.

I have this compound here, CCC(C(=O)Nc1nccc2c(-c3nc(Nc4cn(C)nc4OC)ncc3C)c[nH]c12)N1CCN(C2COC2)CC1 (stereo not drawn) , and I need its recorded IC50. < 5 nM

How about this compound: `Cc1cnc(Nc2cccc(S(C)(=O)=O)c2F)nc1-c1c[nH]c2c(NC(=O)NC(C)C)ncnc12` 5 to 50 nM

How about this compound: CCC(C(=O)Nc1nccc2c(-c3nc(Nc4cn(C)nc4OC)ncc3C)c[nH]c12)N1CCN(C)CC1 (stereo not drawn) 5 to 50 nM

How about this compound: CCC(C(=O)Nc1nccc2c(-c3nc(Nc4cccc(S(C)(=O)=O)c4F)ncc3C)c[nH]c12)N1CCN(C)CC1 (stereo in doubt) [Example 20] 5 to 50 nM

How about this compound: `COc1nn(C)cc1Nc1ncc(C)c(-c2c[nH]c3c(NC(N)=O)nccc23)n1` < 5 nM

How about this compound: CCC(C(=O)Nc1nccc2c(-c3nc(Nc4cccc(S(C)(=O)=O)c4F)ncc3C)c[nH]c12)N1CCN(C)CC1 (stereo in doubt) [Example 21] < 5 nM

---

- experimental target: JAK2 (Homo sapiens, UniProt O60674)
- Sequence (O60674 whole entry): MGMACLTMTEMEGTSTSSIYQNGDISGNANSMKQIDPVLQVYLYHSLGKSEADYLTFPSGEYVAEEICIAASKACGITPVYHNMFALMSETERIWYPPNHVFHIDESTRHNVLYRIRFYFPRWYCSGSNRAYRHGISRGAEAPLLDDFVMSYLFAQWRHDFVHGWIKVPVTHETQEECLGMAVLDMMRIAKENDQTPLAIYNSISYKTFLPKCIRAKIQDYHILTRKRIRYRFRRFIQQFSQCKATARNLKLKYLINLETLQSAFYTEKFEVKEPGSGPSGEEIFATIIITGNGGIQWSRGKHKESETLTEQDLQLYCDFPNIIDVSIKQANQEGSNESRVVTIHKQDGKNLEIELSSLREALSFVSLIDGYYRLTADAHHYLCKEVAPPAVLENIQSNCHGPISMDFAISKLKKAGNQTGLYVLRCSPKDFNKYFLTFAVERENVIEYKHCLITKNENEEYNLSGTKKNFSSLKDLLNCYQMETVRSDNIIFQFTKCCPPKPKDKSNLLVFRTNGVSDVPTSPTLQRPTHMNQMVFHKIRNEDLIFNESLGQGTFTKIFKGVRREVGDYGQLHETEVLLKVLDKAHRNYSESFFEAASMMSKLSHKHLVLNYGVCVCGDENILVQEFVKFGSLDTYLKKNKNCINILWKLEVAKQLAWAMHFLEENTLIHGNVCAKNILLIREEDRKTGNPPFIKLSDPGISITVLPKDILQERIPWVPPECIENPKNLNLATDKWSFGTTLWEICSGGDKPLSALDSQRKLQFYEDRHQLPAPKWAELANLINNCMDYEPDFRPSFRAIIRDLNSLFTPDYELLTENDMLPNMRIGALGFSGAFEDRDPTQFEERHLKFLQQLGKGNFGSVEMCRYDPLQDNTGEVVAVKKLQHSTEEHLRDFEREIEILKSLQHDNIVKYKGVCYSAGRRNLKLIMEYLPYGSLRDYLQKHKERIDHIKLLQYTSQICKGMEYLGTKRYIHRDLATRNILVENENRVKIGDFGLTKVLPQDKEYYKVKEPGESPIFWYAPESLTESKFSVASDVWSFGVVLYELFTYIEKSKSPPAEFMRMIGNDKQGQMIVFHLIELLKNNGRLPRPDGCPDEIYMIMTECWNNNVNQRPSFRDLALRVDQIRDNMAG
- assay: Cellular JAK2 activity assay: EPO-stimulated STAT5 phosphorylation in TF-1 cells
- Format: cell-based
- Set-up: endogenous in cells; host or cells: TF-1 cells (ATCC)
- recorded conditions: EPO (10 U/mL), pSTAT5, read-out: IC50 Cell JAK2
- Procedure: In TF-1 cells, IL-6 stimulation leads to phosphorylation of STAT3 through JAK1, while EPO stimulants phosphorylation of STAT5 via JAK2. TF-1 cells were obtained from American Type Culture Collection (ATCC). […] After the cell plate was incubated for 30 minutes, cells were lysed, and the phosphorylation of STAT3 (IL-6) or STAT5 (EPO) in the cell lysate (pSTAT3/total STAT3 Elisa Kit: CST #7300C/CST #7305C; pSTAT5 and total STAT5 Elisa Kit: Abcam #ab205715) was measured. […]
pIC50: −log10 of the molar value.
metric name: pIC50

Reference set, count: 8
• CC[C@H](C(=O)Nc1nccc2c(-c3nc(Nc4cccc(S(C)(=O)=O)c4F)ncc3C)c[nH]c12)N1CC2CCC(C1)N2C = < 4.70
• CCC(C(=O)Nc1nccc2c(-c3nc(Nc4cn(C)nc4OC)ncc3C)c[nH]c12)N1CCC(O)C1 (stereo not drawn) = < 4.70
• Cc1cnc(Nc2cccc(S(C)(=O)=O)c2F)nc1-c1c[nH]c2c(NC(=O)NC(C)C)ncnc12 = < 4.70
• COCCNC(=O)Nc1nccc2c(-c3nc(Nc4cccc(S(C)(=O)=O)c4F)ncc3C)c[nH]c12 = < 4.70
• CCC(C(=O)Nc1nccc2c(-c3nc(Nc4cn(C)nc4OC)ncc3C)c[nH]c12)N1CCN(C)CC1 (stereo not drawn) = > 5.00
• COc1nn(C)cc1Nc1ncc(C)c(-c2c[nH]c3c(NC(=O)C(C(C)C)N4CCN(C)CC4)nccc23)n1 (stereo not drawn) = > 5.00
• CC[C@H](C(=O)Nc1nccc2c(-c3nc(Nc4cn(C)nc4OC)ncc3C)c[nH]c12)N1CCN(C)CC1 = > 5.00
• CCC(C(=O)Nc1nccc2c(-c3nc(Nc4cccc(S(C)(=O)=O)c4F)ncc3C)c[nH]c12)N1CC2(CCN(C)CC2)C1 (stereo not drawn) = < 4.70

I have this compound here, `COc1nn(C)cc1Nc1ncc(C)c(-c2c[nH]c3c(NC(N)=O)nccc23)n1` , and I need its recorded pIC50. > 5.00
